- assay-explanation: Single dose PK in healthy subjects (Cohorts 1, 2, S1 and S2), plasma
- Assay type: in vivo, human
- stated-conditions: human, plasma, intravenous, 7 mg; 0.5 hr; read-out: Plasma concentration, Q1
endpoint-name: concentration at 0.5 hr (ng/mL)
Reply with just the number (in ng/mL).

Returns the measured concentration at 0.5 hr for the input compound. Input: COC(=O)N1CCC[C@H](NS(C)(=O)=O)[C@@H]1CO[C@H]1CC[C@@H](c2ccccc2)CC1
7.83

----------
- assay-explanation: Single dose PK in healthy subjects (Cohorts 1, 2, S1 and S2), plasma
- Format: in vivo, human
- stated-conditions: human, plasma, intravenous, 112 mg; 1.5 hr; read-out: Plasma concentration, Mean
endpoint-name: concentration at 1.5 h (ng/mL)
Reply numerically in ng/mL, unit not repeated.

What value of measured concentration at 1.5 h is listed for COC(=O)N1CCC[C@H](NS(C)(=O)=O)[C@@H]1CO[C@H]1CC[C@@H](c2ccccc2)CC1 [Compound A] ?
194

----------
- assay-explanation: Single dose PK in healthy subjects (Cohorts 1, 2, S1 and S2), plasma
- Type: in vivo, human
- stated-conditions: human, plasma, intravenous, 28 mg; 4 hr; read-out: Plasma concentration, Q1
endpoint-name: concentration at 4 hr (ng/mL)
Reply numerically in ng/mL, unit not repeated.

Any idea what concentration at 4 hr was measured for COC(=O)N1CCC[C@H](NS(C)(=O)=O)[C@@H]1CO[C@H]1CC[C@@H](c2ccccc2)CC1 [Compound A] ?
54.2

----------
- assay-explanation: Single dose PK in healthy subjects (Cohorts 1, 2, S1 and S2), plasma
- Assay type: in vivo, human
- stated-conditions: human, plasma, iv, 28 mg, 28 mg single IV infusion, healthy subjects; read-out: Ceoi Geo Mean
endpoint-name: concentration at 9 h (ng/mL)
Numeric only. Scale: ng/mL

Field request: concentration at 9 h | item: COC(=O)N1CCC[C@H](NS(C)(=O)=O)[C@@H]1CO[C@H]1CC[C@@H](c2ccccc2)CC1 [Compound A]
52.1

----------
- assay-explanation: Single dose PK in patients with narcolepsy (Cohorts 5, 6 and 7), plasma
- Assay type: in vivo, human
- stated-conditions: human, plasma, intravenous, 11.2 mg, Cmpd A 11.2 mg; Geo Mean; Cohort 5, 6, 7
endpoint-name: AUC(0-inf) (ng·h/mL)
Kindly answer with a numeric value in ng·h/mL, unit omitted.

For the compound COC(=O)N1CCC[C@H](NS(C)(=O)=O)[C@@H]1CO[C@H]1CC[C@@H](c2ccccc2)CC1 [Compound A] , what AUC(0-inf) is on record?
201

----------
- assay-explanation: Single dose PK in healthy subjects (Cohorts 1, 2, S1 and S2), plasma
- Assay type: in vivo, human
- stated-conditions: human, plasma, intravenous, 14 mg; 2 hr; read-out: Plasma concentration, Q1
endpoint-name: concentration at 2 h (ng/mL)
Give the quantity in ng/mL, number only.

Which concentration at 2 h is listed for COC(=O)N1CCC[C@H](NS(C)(=O)=O)[C@@H]1CO[C@H]1CC[C@@H](c2ccccc2)CC1 [Compound A] ?
30

----------
- assay-explanation: Single dose PK in healthy subjects (Cohorts 1, 2, S1 and S2), plasma
- Format: in vivo, human
- stated-conditions: human, plasma, intravenous, 180 mg; 4 hr; read-out: Plasma concentration, Q1
endpoint-name: concentration at 4 hr (ng/mL)
# unit: ng/mL | format: bare number

# lookup: concentration at 4 hr of COC(=O)N1CCC[C@H](NS(C)(=O)=O)[C@@H]1CO[C@H]1CC[C@@H](c2ccccc2)CC1 [Compound A]
304

----------
- assay-explanation: Single dose PK in healthy subjects (Cohorts 1, 2, S1 and S2), plasma
- Assay type: in vivo, human
- stated-conditions: human, plasma, intravenous, 112 mg; 3 hr; read-out: Plasma concentration, Maximum
- Text: […]
endpoint-name: concentration at 3 h (ng/mL)
Quick note: give the figure in ng/mL, leave out the unit.

Please look up its concentration at 3 h: COC(=O)N1CCC[C@H](NS(C)(=O)=O)[C@@H]1CO[C@H]1CC[C@@H](c2ccccc2)CC1
276

----------
- assay-explanation: Single dose PK in patients with narcolepsy (Cohorts 5, 6 and 7), plasma
- Type: in vivo, human
- stated-conditions: human, plasma, intravenous, 44.8 mg, Cmpd A 44.8 mg; Geo Mean; Cohort 5, 6, 7; read-out: Ceoi
endpoint-name: concentration at 9 h (µg/mL)
// note: answer is a bare numeric in µg/mL

Data request, read-out concentration at 9 h, for COC(=O)N1CCC[C@H](NS(C)(=O)=O)[C@@H]1CO[C@H]1CC[C@@H](c2ccccc2)CC1 [Compound A]
0.094

----------
- assay-explanation: Single dose PK in healthy subjects (Cohorts 1, 2, S1 and S2), plasma
- Format: in vivo, human
- stated-conditions: human, plasma, intravenous, 240 mg; 2 hr; read-out: Plasma concentration, Minimum
endpoint-name: concentration at 2 hr (ng/mL)
Form entry: value (ng/mL) — number only.

Given COC(=O)N1CCC[C@H](NS(C)(=O)=O)[C@@H]1CO[C@H]1CC[C@@H](c2ccccc2)CC1 , state its recorded concentration at 2 hr.
337

----------
- assay-explanation: Single dose PK in healthy subjects (Cohorts 1, 2, S1 and S2), plasma
- Assay type: in vivo, human
- stated-conditions: human, plasma, intravenous, 28 mg; 0.5 hr; read-out: Plasma concentration, Maximum
endpoint-name: concentration at 0.5 h (ng/mL)
Hi! Could you send only the number? It should be in ng/mL, unit omitted.

Fill blank: measured concentration at 0.5 h of the compound COC(=O)N1CCC[C@H](NS(C)(=O)=O)[C@@H]1CO[C@H]1CC[C@@H](c2ccccc2)CC1 [Compound A] is ____.
48.7

----------
- assay-explanation: Single dose PK in healthy subjects (Cohorts 1, 2, S1 and S2), plasma
- Type: in vivo, human
- stated-conditions: human, plasma, intravenous, 28 mg; 2 hr; read-out: Plasma concentration, Q3
endpoint-name: concentration at 2 h
State the result as a value with its unit after it.

For the compound COC(=O)N1CCC[C@H](NS(C)(=O)=O)[C@@H]1CO[C@H]1CC[C@@H](c2ccccc2)CC1 , what concentration at 2 h is on record?
57.8 ng/mL

----------
- assay-explanation: Single dose PK in patients with narcolepsy (Cohorts 5, 6 and 7), plasma
- Type: in vivo, human
- stated-conditions: human, plasma, iv, 5 mg; 4 hr; NT1, single 9 h IV infusion; read-out: Plasma concentration, Median
endpoint-name: concentration at 4 h
Provide the measurement as a number trailed by its unit.

Which measured concentration at 4 h value corresponds to COC(=O)N1CCC[C@H](NS(C)(=O)=O)[C@@H]1CO[C@H]1CC[C@@H](c2ccccc2)CC1 ?
9.62 ng/mL

----------
- assay-explanation: Single dose PK in healthy subjects (Cohorts 1, 2, S1 and S2), plasma
- Assay type: in vivo, human
- stated-conditions: human, plasma, iv, 240 mg, 240 mg single IV infusion; 15 hr After End of Infusions; read-out: Plasma Concentration of Cmpd A, Median
endpoint-name: concentration at 15 h after end of infusion (ng/mL)
Number in ng/mL, nothing else.

Could you tell me which concentration at 15 h after end of infusion is on file for COC(=O)N1CCC[C@H](NS(C)(=O)=O)[C@@H]1CO[C@H]1CC[C@@H](c2ccccc2)CC1 ?
7.64

----------
- assay-explanation: Single dose PK in healthy subjects (Cohorts 1, 2, S1 and S2), plasma
- Format: in vivo, human
- stated-conditions: human, plasma, intravenous, 112 mg; 8 hr; read-out: Plasma concentration, Minimum
endpoint-name: concentration at 8 h (ng/mL)
Give the quantity in ng/mL, number only.

What value of concentration at 8 h has been reported for the following compound? COC(=O)N1CCC[C@H](NS(C)(=O)=O)[C@@H]1CO[C@H]1CC[C@@H](c2ccccc2)CC1
162

----------
- assay-explanation: Single dose PK in healthy subjects (Cohorts 1, 2, S1 and S2), plasma
- Type: in vivo, human
- stated-conditions: human, plasma, intravenous, 14 mg; 1 hr; read-out: Plasma concentration, Median
endpoint-name: concentration at 1 h

concentration at 1 h lookup needed for COC(=O)N1CCC[C@H](NS(C)(=O)=O)[C@@H]1CO[C@H]1CC[C@@H](c2ccccc2)CC1 , thanks.
26.9 ng/mL

----------
- assay-explanation: Single dose PK in healthy subjects (Cohorts 1, 2, S1 and S2), plasma
- Type: in vivo, human
- stated-conditions: human, plasma, intravenous, 56 mg; 2 hr; read-out: Plasma concentration, Q3
endpoint-name: concentration at 2 h

Give the measured concentration at 2 h of COC(=O)N1CCC[C@H](NS(C)(=O)=O)[C@@H]1CO[C@H]1CC[C@@H](c2ccccc2)CC1 [Compound A] .
110 ng/mL

----------
- assay-explanation: Single dose PK in healthy subjects (Cohorts 1, 2, S1 and S2), plasma
- Assay type: in vivo, human
- stated-conditions: human, plasma, iv, 14 mg, 14 mg single IV infusion, healthy subjects; read-out: Ceoi Mean
endpoint-name: concentration at 9 h
Write the figure, then the unit, nothing else.

What concentration at 9 h value was documented for this molecule, COC(=O)N1CCC[C@H](NS(C)(=O)=O)[C@@H]1CO[C@H]1CC[C@@H](c2ccccc2)CC1 ?
30.1 ng/mL
